Listed below: viability at 28.5 h, 10 µM values for each entry.
# experimentSummary: in vitro
# conditionDescription: human, hela cells, % viability
Give the number first and the unit second.

- compound: "O=C(CC(C(=O)O)n1cncn1)c1ccc(Br)cc1 (stereo not drawn)"
  readoutValue: "103%"
- compound: "O=C(NCCO)/C(=C\\c1ccccc1)NC(=O)c1ccc(I)cc1"
  readoutValue: "89.2%"
- compound: "COc1cncc(-c2cc(NCc3cc(OC)c(OC)c(OC)c3)ncn2)c1"
  readoutValue: "88.4%"
- compound: "COC(=O)C1CCN(S(=O)(=O)c2ccccc2[N+](=O)[O-])CC1"
  readoutValue: "115%"
- compound: "OCCN1CCN(CC(O)COCc2ccccc2)CC1 (stereo not drawn) [CBK278262C]"
  readoutValue: "90.6%"

[Q] Name the reported viability at 28.5 h, 10 µM value associated with the compound CCOCc1ccc(C(=O)N2CCNC(=O)C2Cc2ccc(-c3cccs3)cc2)cc1 (stereo not drawn)
[A] 97.3%

[Q] Same question, Cc1ccc(CC2CCCN2CC(=O)NCc2ccccn2)cc1 (stereo not drawn) this time
[A] 96.6%

[Q] Param item: "CC(C)NC(=O)C[C@@H]1CCNC[C@@H]1Cc1cc(-c2ccccc2)on1"
[A] 83.7%

[Q] Follow-up entry: "Nc1ncnc(Nc2cccc(C(F)(F)F)c2)n1"
[A] 82.4%

[Q] What do you have for "Cc1cc(C)nc(Nc2n[nH]c(-c3cccnc3)n2)n1" ?
[A] 98%

[Q] // next record "c1ccc(-c2nnc(SCc3nnc(-c4ccccc4)o3)[nH]2)cc1"
[A] 104%

[Q] And for "COc1ccc(-c2cccc(Nc3cccnc3)n2)cc1OC" ?
[A] 94.6%

[Q] Repeat with "Cc1ccc(S(=O)(=O)N2CCN(C(c3ccccc3)c3ccccc3)CC2)cc1[N+](=O)[O-]"
[A] 103%

[Q] Subsequent entry: "CN1CCC(Oc2ncccc2OCc2ccccc2)CC1"
[A] 97.4%

[Q] Further, for "O=S(=O)(Nc1nc(-c2sccc2Cl)cs1)c1cc(Br)c(Cl)s1" ?
[A] 107%
